# target entity: IRAK4 (Homo sapiens)
# Construct: Effect of the Compounds on IRAK4 Protein Degradation in THP1 Cells; endogenous in cells; host or cells: THP-1 cells
# Sequence (Q9NWZ3 whole entry): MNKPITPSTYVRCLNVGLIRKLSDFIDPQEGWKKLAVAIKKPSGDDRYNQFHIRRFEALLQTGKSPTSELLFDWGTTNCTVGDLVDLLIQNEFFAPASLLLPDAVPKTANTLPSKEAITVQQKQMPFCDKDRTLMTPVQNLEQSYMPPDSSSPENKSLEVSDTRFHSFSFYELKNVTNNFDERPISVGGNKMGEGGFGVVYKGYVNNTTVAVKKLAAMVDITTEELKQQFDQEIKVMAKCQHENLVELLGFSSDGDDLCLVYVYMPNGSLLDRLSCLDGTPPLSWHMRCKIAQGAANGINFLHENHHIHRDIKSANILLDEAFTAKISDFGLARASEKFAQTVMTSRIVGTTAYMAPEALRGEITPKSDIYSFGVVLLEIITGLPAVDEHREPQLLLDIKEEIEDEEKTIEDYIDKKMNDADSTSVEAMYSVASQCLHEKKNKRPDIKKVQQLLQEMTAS
# assay overview: IRAK4 protein degradation in THP1 cells (Western blot)
# Type: cell-based
# condition set: THP-1 cells, 24 h
measured quantity: DC50 (nM)

CN(C)c1cc2nn([C@H]3CC[C@H](CN4C[C@@H](F)[C@H](n5cc6ccc(N7CCC(=O)NC7=O)cc6n5)C4)CC3)cc2cc1NC(=O)c1cnn2cccnc12; 1.79
CN(C)c1cc2nn([C@H]3CC[C@H](CN4CC[C@H](n5cc6cc(C7CCC(=O)NC7=O)ccc6n5)[C@H](F)C4)CC3)cc2cc1NC(=O)c1cnn2cccnc12 (stereo partly shown); 0.31
CO[C@H]1CN(C[C@H]2CC[C@H](n3cc4cc(NC(=O)c5cnn6cccnc56)c(N(C)C)cc4n3)CC2)CC[C@@H]1n1cc2ccc(C3CCC(=O)NC3=O)cc2n1 (stereo partly shown); 1.58
CN(C)c1cc2nn([C@H]3CC[C@H](CN4CC[C@H](n5cc6cc(F)c(C7CCC(=O)NC7=O)cc6n5)[C@H](F)C4)CC3)cc2cc1NC(=O)c1cnn2cccnc12 (stereo partly shown); 1.71
CN(C)c1cc2nn([C@H]3CC[C@H](CN4CCC(c5nc6cc(N7CCC(=O)NC7=O)ccc6o5)CC4)CC3)cc2cc1NC(=O)c1cnn2cccnc12; 3.22

A = C[C@H]1CN(C[C@H]2CC[C@H](n3cc4cc(NC(=O)c5cnn6cccnc56)c(N(C)C)cc4n3)CC2)CC[C@@H]1n1cc2ccc(C3CCC(=O)NC3=O)cc2n1 (stereo partly shown)
B = CN(C)c1cc2nn([C@H]3CC[C@H](CN4CCC[C@@H](n5cc6cc(N7CCC(=O)NC7=O)ccc6n5)C4)CC3)cc2cc1NC(=O)c1cnn2cccnc12
stdin: Please choose the item with the lower DC50 value from this pair: A and B Write the label of whichever entry you select.
stdout: A
(A: 1.12 nM, B: 3.23 nM)

* * *

# target entity: IRAK4 (Homo sapiens)
# Construct: Effect of the Compounds on IRAK4 Protein Degradation in THP1 Cells; endogenous in cells; host or cells: THP-1 cells
# assay overview: IRAK4 protein degradation in THP1 cells (Western blot)
# Format: cell-based
# condition set: THP-1 cells, 24 h
measured quantity: DC50 (nM)

Reference set (3 entries):
CN(C)c1cc2nn([C@H]3CC[C@H](CN4CC[C@H](n5cc6cc(N7CCC(=O)NC7=O)ccc6n5)[C@@H](F)C4)CC3)cc2cc1NC(=O)c1cnn2cccnc12; 1.19
CN(C)c1cc2nn([C@H]3CC[C@H](CN4CC[C@H](n5cc6cc(N7CCC(=O)NC7=O)ccc6n5)[C@H](F)C4)CC3)cc2cc1NC(=O)c1cnn2cccnc12; 1.2
CN(C)c1cc2nn([C@H]3CC[C@H](CN4C[C@@H](n5cc6cc(N7CCC(=O)NC7=O)ccc6n5)[C@@H](F)C4)CC3)cc2cc1NC(=O)c1cnn2cccnc12; 1.56

I = CN(C)c1cc2nn([C@H]3CC[C@H](CN4CC[C@H](n5cc6cc(C7CCC(=O)NC7=O)c(F)cc6n5)[C@@H](F)C4)CC3)cc2cc1NC(=O)c1cnn2cccnc12 (some centres unmarked)
II = CN(C)c1cc2nn([C@H]3CC[C@H](CN4CC[C@H](n5cc6cc(C7CCC(=O)NC7=O)c(F)cc6n5)[C@H](F)C4)CC3)cc2cc1NC(=O)c1cnn2cccnc12 (some centres unmarked)
stdin: Please choose the item with the lower DC50 value from this pair: I and II Write the label of whichever entry you select.
stdout: II

Where these numbers come from: patent US20260216348A1
